- Organism: Rattus norvegicus
- Assay details: Open TG-GATES - Regimen: Daily Repeat
- Format: toxicity, organism-based, Sprague-Dawley
- Design: regimen Daily Repeat, gender Male, age 6 weeks
- Test parameters: in vivo, po, 300 mg/kg, […], tissue Plasma, route gavage, dose level Middle, time 28 day
Measure: ALT (IU/L)

Molecule	Measure	Measure unit	Value
O=C(O)c1ccccc1Nc1ccccc1 [FENAMIC ACID]	ALT	IU/L	31
CCCCNC(=O)NS(=O)(=O)c1ccc(C)cc1 [TOLBUTAMIDE]	ALT	IU/L	39.8
CC(S)C(=O)NCC(=O)O (centres undefined) [TIOPRONIN]	ALT	IU/L	42.6
CC(=O)[C@@]1(O)CC[C@H]2[C@@H]3C=C(Cl)C4=CC(=O)CC[C@]4(C)[C@H]3CC[C@@]21C [CHLORMADINONE]	ALT	IU/L	61.6

* * *

- Organism: Rattus norvegicus
- Assay details: Open TG-GATES - Regimen: Daily Repeat
- Type: toxicity, organism-based, Sprague-Dawley
- Parameters: regimen Daily Repeat, gender Male, age 6 weeks
- Test parameters: in vivo, po, 1000 mg/kg, […], tissue Blood, route gavage, dose level High, time 28 day
List of PT values.

Compound	Measure unit	PT
CC(S)C(=O)NCC(=O)O (centres undefined)	s	16.1
CCCCNC(=O)NS(=O)(=O)c1ccc(C)cc1 [TOLBUTAMIDE]	s	13.5
O=C(O)c1ccccc1Nc1ccccc1	s	13.9
CC(=O)[C@@]1(O)CC[C@H]2[C@@H]3C=C(Cl)C4=CC(=O)CC[C@]4(C)[C@H]3CC[C@@]21C	s	15.1

* * *

- Species: Rattus norvegicus
- Assay details: Open TG-GATES - Regimen: Daily Repeat
- Assay type: toxicity, organism-based, Sprague-Dawley
- Set-up: regimen Daily Repeat, gender Male, age 6 weeks
- Test parameters: in vivo, po, 300 mg/kg, […], tissue Blood, route gavage, dose level Middle, time 28 day

Compound	Neu / %
O=C(O)c1ccccc1Nc1ccccc1	15.8
CCCCNC(=O)NS(=O)(=O)c1ccc(C)cc1 [TOLBUTAMIDE]	13.8
CC(=O)[C@@]1(O)CC[C@H]2[C@@H]3C=C(Cl)C4=CC(=O)CC[C@]4(C)[C@H]3CC[C@@]21C	12.8
CC(S)C(=O)NCC(=O)O (centres undefined)	12.6

* * *

- Species on record: Rattus norvegicus
- Assay details: Open TG-GATES - Regimen: Daily Repeat
- Type: toxicity, organism-based, Sprague-Dawley
- Parameters: regimen Daily Repeat, gender Male, age 6 weeks
- Test parameters: in vivo, po, 0 mg/kg, […], tissue Plasma, route gavage, dose level Control, time 7 day
Labelling field: enter yes (1) if recorded TBIL is less than 0.1 mg/dL. Enter no (0) if it equals or exceeds that cut-off.

Molecule	Label
Nc1ccc(Cc2ccc(N)cc2)cc1	yes (1)
CC(S)C(=O)NCC(=O)O (stereo not given) [TIOPRONIN]	yes (1)
CC(=O)[C@@]1(O)CC[C@H]2[C@@H]3C=C(Cl)C4=CC(=O)CC[C@]4(C)[C@H]3CC[C@@]21C [CHLORMADINONE]	yes (1)
CCCCC1C(=O)N(c2ccccc2)N(c2ccccc2)C1=O [PHENYLBUTAZONE]	no (0)

* * *

Quick reference for Cl among some molecules
- Organism: Rattus norvegicus
- Assay details: Open TG-GATES - Regimen: Single
- Format: toxicity, organism-based, Sprague-Dawley
- Design: regimen Single, gender Male, age 6 weeks
- Test parameters: in vivo, po, 0 mg/kg, 24 h, tissue Plasma, route gavage, dose level Control
Measure: Cl (meq/L)

Molecule	Measure	Value
COc1ccc([C@@H]2Sc3ccccc3N(CCN(C)C)C(=O)[C@@H]2OC(C)=O)cc1	Cl	107
CC(=O)[C@@]1(O)CC[C@H]2[C@@H]3C=C(Cl)C4=CC(=O)CC[C@]4(C)[C@H]3CC[C@@]21C	Cl	105.4
O=C(O)c1ccccc1Nc1ccccc1	Cl	105.2
CN(C)CCCN1c2ccccc2Sc2ccc(Cl)cc21	Cl	103.8
CN(C/C=C/C#CC(C)(C)C)Cc1cccc2ccccc12	Cl	103.6
Nc1ccc(Cc2ccc(N)cc2)cc1	Cl	106.4
CC(S)C(=O)NCC(=O)O (stereo unspecified)	Cl	105.6
CN(CCOc1ccc(CC2SC(=O)NC2=O)cc1)c1ccccn1.O=C(O)/C=C\C(=O)O (stereo unspecified) [ROSIGLITAZONE MALEATE]	Cl	104
CCCCNC(=O)NS(=O)(=O)c1ccc(C)cc1 [TOLBUTAMIDE]	Cl	104.8
CCO	Cl	103.4
O=c1ccc2ccccc2o1	Cl	105.4

* * *

This listing pairs compounds with measured Fbg.
- Species: Rattus norvegicus
- Assay details: Open TG-GATES - Regimen: Single
- Type: toxicity, organism-based, Sprague-Dawley
- Design: regimen Single, gender Male, age 6 weeks
- Test parameters: in vivo, po, 0 mg/kg, 6 h, tissue Blood, route gavage, dose level Control

Compound	Measure unit	Fbg
NS(=O)(=O)c1cc(C(=O)O)c(NCc2ccco2)cc1Cl [FUROSEMIDE]	mg/dL	313.6
CCN(CC)C(=S)SSC(=S)N(CC)CC	mg/dL	286.4
CCCCNC(=O)NS(=O)(=O)c1ccc(C)cc1 [TOLBUTAMIDE]	mg/dL	279.6
CN(C/C=C/C#CC(C)(C)C)Cc1cccc2ccccc12 [TERBINAFINE]	mg/dL	229.4
O=C(O)c1ccccc1Nc1ccccc1 [FENAMIC ACID]	mg/dL	283.4
CN(CCOc1ccc(CC2SC(=O)NC2=O)cc1)c1ccccn1.O=C(O)/C=C\C(=O)O (stereo unspecified) [ROSIGLITAZONE MALEATE]	mg/dL	220.2
CCO [ALCOHOL]	mg/dL	212
CN(C)CCCN1c2ccccc2Sc2ccc(Cl)cc21 [CHLORPROMAZINE]	mg/dL	227.4
CC(=O)[C@@]1(O)CC[C@H]2[C@@H]3C=C(Cl)C4=CC(=O)CC[C@]4(C)[C@H]3CC[C@@]21C [CHLORMADINONE]	mg/dL	293.2
O=c1ccc2ccccc2o1 [COUMARIN]	mg/dL	205.8
Nc1ccc(Cc2ccc(N)cc2)cc1	mg/dL	279.2

* * *

Items are presented alongside their recorded CRE.
- Species on record: Rattus norvegicus
- Assay details: Open TG-GATES - Regimen: Daily Repeat
- Assay type: toxicity, organism-based, Sprague-Dawley
- Set-up: regimen Daily Repeat, gender Male, age 6 weeks
- Test parameters: in vivo, po, 1000 mg/kg, […], tissue Plasma, route gavage, dose level High, time 14 day

Compound	Measure unit	CRE
CCCCNC(=O)NS(=O)(=O)c1ccc(C)cc1 [TOLBUTAMIDE]	mg/dL	0.2
CC(S)C(=O)NCC(=O)O (centres undefined) [TIOPRONIN]	mg/dL	0.2
CC(=O)[C@@]1(O)CC[C@H]2[C@@H]3C=C(Cl)C4=CC(=O)CC[C@]4(C)[C@H]3CC[C@@]21C [CHLORMADINONE]	mg/dL	0.2
O=C(O)c1ccccc1Nc1ccccc1 [FENAMIC ACID]	mg/dL	0.5

* * *

- Species on record: Rattus norvegicus
- Assay details: Open TG-GATES - Regimen: Single
- Assay type: toxicity, organism-based, Sprague-Dawley
- Set-up: regimen Single, gender Male, age 6 weeks
- Test parameters: in vivo, po, 0 mg/kg, 9 h, tissue Plasma, route gavage, dose level Control

Compound	Measure unit	GLC
CN(C/C=C/C#CC(C)(C)C)Cc1cccc2ccccc12	mg/dL	204.2
O=C(O)c1ccccc1Nc1ccccc1	mg/dL	182.4
C=C[C@H]1C[N@@]2CC[C@H]1C[C@@H]2[C@@H](O)c1ccnc2ccc(OC)cc12	mg/dL	174.2
CCCCNC(=O)NS(=O)(=O)c1ccc(C)cc1 [TOLBUTAMIDE]	mg/dL	166.8
COc1ccc([C@@H]2Sc3ccccc3N(CCN(C)C)C(=O)[C@@H]2OC(C)=O)cc1	mg/dL	178

* * *

- Organism: Rattus norvegicus
- Assay details: Open TG-GATES - Regimen: Daily Repeat
- Type: toxicity, organism-based, Sprague-Dawley
- Set-up: regimen Daily Repeat, gender Male, age 6 weeks
- Test parameters: in vivo, po, 0 mg/kg, […], tissue Plasma, route gavage, dose level Control, time 14 day

Compound	GLC (mg/dL)
CCCCC1C(=O)N(c2ccccc2)N(c2ccccc2)C1=O	207.4
O=C(O)c1ccccc1Nc1ccccc1	184
O=c1ccc2ccccc2o1	192
CN(CCOc1ccc(CC2SC(=O)NC2=O)cc1)c1ccccn1.O=C(O)/C=C\C(=O)O (stereo not given) [ROSIGLITAZONE MALEATE]	186.4
CCCCNC(=O)NS(=O)(=O)c1ccc(C)cc1 [TOLBUTAMIDE]	185.6

* * *

- Species: Rattus norvegicus
- Assay details: Open TG-GATES - Regimen: Daily Repeat
- Assay type: toxicity, organism-based, Sprague-Dawley
- Set-up: regimen Daily Repeat, gender Male, age 6 weeks
- Test parameters: in vivo, po, 1000 mg/kg, […], tissue Blood, route gavage, dose level High, time 7 day
Listing of recorded Ht by entry.

Molecule	Ht (%)
CC(=O)[C@@]1(O)CC[C@H]2[C@@H]3C=C(Cl)C4=CC(=O)CC[C@]4(C)[C@H]3CC[C@@]21C	44.5
O=C(O)c1ccccc1Nc1ccccc1	37
CCCCNC(=O)NS(=O)(=O)c1ccc(C)cc1 [TOLBUTAMIDE]	41.4
CC(S)C(=O)NCC(=O)O (centres undefined)	39.6

Numbers sourced from ChEMBL document CHEMBL3885861.
